Let's look at some molecules and their measured IC50.
Test system: SUDHL5
Test: Induction of cytotoxicity, SUDHL5 (Assay 6)
Details: read-out: IC50 Cytotox SUDHL5 [M] (median), SUDHL5 cells, 5 h, CellTiter-Glo
quantity.kind: IC50 (M)

| molecule | target | units.label | relation | observed |
| --- | --- | --- | --- | --- |
| CCc1nn(C)c2c1-c1c(F)ccc3c(CCCOc4ccc(F)c5ccccc45)c(C(=O)O)n(c13)CCCCOC2 (single isomer, unassigned; enantiomer 2) [Example 43] | SUDHL5 | M | > | 3.3e-05 |
| CCc1nn(C)c2c1-c1c(F)ccc3c(CCCOc4cccc5cc(F)ccc45)c(C(=O)O)n(c13)CCCCOC2 (single isomer, unassigned; enantiomer 1) [Example 39] | SUDHL5 | M | = | 6.2e-07 |
| CCc1c2c(nn1C)COCCCCn1c(C(=O)O)c(CCCOc3ccc(F)c4ccccc34)c3ccc(F)c-2c31 (single isomer, unassigned; enantiomer 2) [Example 28] | SUDHL5 | M | = | 1.8e-05 |
| CCc1nn(C)c2c1-c1c(F)ccc3c(CCCOc4ccc(F)c5ccccc45)c(C(=O)O)n(c13)CCCCOC2 (single isomer, unassigned; enantiomer 1) [Example 42] | SUDHL5 | M | = | 2e-06 |
| CCc1c2c(nn1C)COCCCCn1c(C(=O)O)c(CCCOc3cccc4ccccc34)c3ccc(F)c-2c31 (single isomer, unassigned; enantiomer 1) [Example 7] | SUDHL5 | M | = | 4.6e-07 |
| Cc1c2c(nn1C)CNCCCCn1c(C(=O)O)c(CCCOc3cccc4ccccc34)c3ccc(F)c-2c31 (single isomer, unassigned; enantiomer 1) [Example 48] | SUDHL5 | M | = | 1.3e-06 |
